Collected IC50 for ROCK2 (Homo sapiens, UniProt O75116) across several studies; compounds listed below.
State the answer as a number, implicitly in nM.

compound=COc1cc(-c2cn[nH]c2)ccc1C(=O)NCc1c(F)cccc1Cl experimental_system="ROCK2 (Homo sapiens, UniProt O75116)" readout=IC50 value_measured=6.48

Request: IC50, test system ROCK2 (Homo sapiens, UniProt O75116), entry CNCC(NC(=O)c1cc(-c2ccc3[nH]nc(C)c3c2)ccn1)c1cccc(OC)c1 (centres unmarked)
11

Request: IC50, test system ROCK2 (Homo sapiens, UniProt O75116), entry COc1cc(N2CCC3(CCN(C(=O)c4ccc(N5CCN(CC(C)(C)C)CC5)cc4)CC3)C2=O)ccc1-c1cn[nH]c1
0.4

Request: IC50, test system ROCK2 (Homo sapiens, UniProt O75116), entry CP(C)(=O)c1ccc2nc(NC(=O)Cc3ccc(Oc4ncccc4C(N)=O)c(F)c3)n(CC3CC3)c2c1
133

====

Collected pIC50 for ROCK2 (Homo sapiens, UniProt O75116) across several studies; molecules listed below.
By convention, pIC50 is the negative base-10 log of a molar concentration.

For orientation, consider the following solved cases.
molecule="COCCn1cc(C(N)=O)c(O[C@H]2C[C@@]3(C[C@H](NC(=O)c4cnn5c(C6CC6)c(OCC(C)(C)O)ccc45)C3)C2)n1 (stereo partly drawn)" readout=pIC50 value_measured=7.11
molecule=COc1cc(C(=O)NC[C@@H](O)c2cccc(Cl)c2)ccc1-c1cn[nH]c1 readout=pIC50 value_measured=7.49
molecule=O=C(c1cc2ccc(-c3ncc(F)c(Nc4ccc(-c5cn[nH]c5)cc4)n3)cc2s1)N1CC(F)(F)C1 readout=pIC50 value_measured=7.08
molecule="CC(CO)NC(=O)c1cc2ccc(-c3nccc(Nc4ccc5[nH]ncc5c4)n3)cc2[nH]1 (stereo not drawn)" readout=pIC50 value_measured=7.55
molecule=COc1cc(N2CCC3(CCN(C(=O)c4ccc(N5CCCC5)cn4)CC3)C2=O)ccc1-c1cn[nH]c1 readout=pIC50 value_measured=8.68
molecule=CP(C)(=O)c1ccc2nc(NC(=O)Cc3ccc(Oc4ncccc4C(N)=O)c(F)c3)n(CC(F)F)c2c1 readout=pIC50 value_measured=6.33

Request: pIC50, test system ROCK2 (Homo sapiens, UniProt O75116), entry NC(=O)c1cccnc1Oc1ccc(CC(=O)Nc2nc(C3CC3)ns2)cc1F
6.58

Request: pIC50, test system ROCK2 (Homo sapiens, UniProt O75116), entry CC(C)(C)OC(=O)n1ncc2cc(NC(=O)c3cc4ccc(-c5nccc(Nc6ccc7[nH]ncc7c6)n5)cc4[nH]3)ccc21
6.30

====

Collected pIC50 for UniProt:O75116 across several studies; molecules listed below.
pIC50: −log10 of the molar value.
Rule: pIC50 under 7 gives Condition not met, otherwise Condition met.

molecule="CC(C)CCC1NC(=O)N([C@H]2C[C@@]3(C[C@H](Oc4ncccc4C(N)=O)C3)C2)C1=O (stereo partly shown)" answer_label="Condition not met"
molecule=C[C@@H](NC(=O)c1ccc(-c2ccncc2)cc1)c1cccc(C(=O)NCc2ccc(CN(C)C)cc2)c1 answer_label="Condition met"
molecule=Cn1c(C(=O)N2CC(F)(F)C2)cc2ccc(-c3nccc(Nc4ccc5c(N)nccc5c4)n3)cc21 answer_label="Condition not met"

Please indicate if the recorded pIC50 for NC(=O)c1cccnc1Oc1ccc(CC(=O)Nc2nc3ccccc3n2CC2CCOCC2)cc1F meets or exceeds 7.
Condition not met

Please indicate if the recorded pIC50 for O=C(Nc1ccnnc1)c1cc2ccc(-c3ncnc(Nc4ccc5[nH]ncc5c4)n3)cc2[nH]1 meets or exceeds 7.
Condition not met
